molecular target: Sodium channel protein type 8 subunit alpha (Homo sapiens, UniProt Q9UQD0); assay: Use-dependent inhibition of human Nav1.6 expressed in HEK293 cells at 50 uM using double-pulse protocol by patch clamp technique; format: cell-based
Sequence (Q9UQD0 whole entry, looked up): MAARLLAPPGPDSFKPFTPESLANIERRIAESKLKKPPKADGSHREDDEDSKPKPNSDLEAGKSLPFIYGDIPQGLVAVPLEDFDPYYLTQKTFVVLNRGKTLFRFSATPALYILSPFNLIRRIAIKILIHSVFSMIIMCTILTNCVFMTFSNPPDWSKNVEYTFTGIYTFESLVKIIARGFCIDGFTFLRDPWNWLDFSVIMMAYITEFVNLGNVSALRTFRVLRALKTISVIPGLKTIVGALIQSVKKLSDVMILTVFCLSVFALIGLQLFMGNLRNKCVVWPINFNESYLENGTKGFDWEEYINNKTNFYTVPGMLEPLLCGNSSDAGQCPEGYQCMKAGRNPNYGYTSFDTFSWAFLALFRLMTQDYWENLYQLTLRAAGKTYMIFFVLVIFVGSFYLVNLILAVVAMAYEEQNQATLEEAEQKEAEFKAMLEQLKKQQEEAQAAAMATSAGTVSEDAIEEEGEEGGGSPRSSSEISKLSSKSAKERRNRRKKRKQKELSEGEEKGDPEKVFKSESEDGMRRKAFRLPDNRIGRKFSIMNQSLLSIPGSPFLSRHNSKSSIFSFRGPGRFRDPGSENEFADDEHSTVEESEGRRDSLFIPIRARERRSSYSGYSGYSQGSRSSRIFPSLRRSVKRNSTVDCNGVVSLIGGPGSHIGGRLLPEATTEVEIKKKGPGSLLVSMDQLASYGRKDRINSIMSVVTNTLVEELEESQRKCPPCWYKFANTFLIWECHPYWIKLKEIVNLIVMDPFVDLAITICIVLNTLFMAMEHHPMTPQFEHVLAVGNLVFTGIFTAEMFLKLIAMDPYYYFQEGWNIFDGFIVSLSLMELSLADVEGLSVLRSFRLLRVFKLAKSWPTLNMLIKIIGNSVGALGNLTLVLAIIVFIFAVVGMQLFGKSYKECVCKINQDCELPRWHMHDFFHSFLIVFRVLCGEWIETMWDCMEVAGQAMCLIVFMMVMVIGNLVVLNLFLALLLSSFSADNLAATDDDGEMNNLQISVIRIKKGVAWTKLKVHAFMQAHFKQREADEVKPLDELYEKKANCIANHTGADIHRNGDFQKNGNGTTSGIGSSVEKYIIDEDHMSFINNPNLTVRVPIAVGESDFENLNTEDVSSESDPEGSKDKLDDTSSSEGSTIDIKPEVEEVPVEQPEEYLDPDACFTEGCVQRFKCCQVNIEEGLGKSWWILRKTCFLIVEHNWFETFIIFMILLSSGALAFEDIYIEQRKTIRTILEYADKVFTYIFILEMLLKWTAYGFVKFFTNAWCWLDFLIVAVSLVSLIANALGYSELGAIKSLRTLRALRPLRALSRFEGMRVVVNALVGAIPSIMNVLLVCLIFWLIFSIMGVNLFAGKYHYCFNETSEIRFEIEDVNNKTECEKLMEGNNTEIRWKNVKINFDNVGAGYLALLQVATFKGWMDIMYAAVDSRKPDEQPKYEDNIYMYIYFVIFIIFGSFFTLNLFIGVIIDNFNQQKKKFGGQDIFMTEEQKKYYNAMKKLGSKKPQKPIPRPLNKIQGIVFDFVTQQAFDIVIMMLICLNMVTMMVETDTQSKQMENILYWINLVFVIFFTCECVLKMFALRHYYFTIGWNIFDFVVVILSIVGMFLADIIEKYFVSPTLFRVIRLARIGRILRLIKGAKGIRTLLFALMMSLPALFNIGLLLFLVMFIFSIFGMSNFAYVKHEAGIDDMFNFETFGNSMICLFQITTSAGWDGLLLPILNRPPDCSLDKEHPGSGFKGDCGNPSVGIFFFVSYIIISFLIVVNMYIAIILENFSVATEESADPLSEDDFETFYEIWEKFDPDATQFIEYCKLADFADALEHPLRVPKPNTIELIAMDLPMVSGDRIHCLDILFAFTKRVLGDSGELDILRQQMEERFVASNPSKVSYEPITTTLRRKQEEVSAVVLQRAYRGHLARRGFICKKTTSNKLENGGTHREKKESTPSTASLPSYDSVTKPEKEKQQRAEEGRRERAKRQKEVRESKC
readout: inhibition (%)
Please respond with the number in % and leave the unit unwritten.

Field inhibition (system: Sodium channel protein type 8 subunit alpha (Homo sapiens, UniProt Q9UQD0)) for entry CN1CCN(c2ncc(-c3cc(Cl)cc(Cl)c3Cl)c(N)n2)CC1 [SIPATRIGINE] = 63.2

For NCc1noc(-c2c3ccccc3nn2Cc2ccccc2)n1 on Sodium channel protein type 8 subunit alpha (Homo sapiens, UniProt Q9UQD0), measured inhibition was 65.8

Kindly note: Sodium channel protein type 8 subunit alpha (Homo sapiens, UniProt Q9UQD0), NCc1noc(-c2nn(Cc3ccccc3)c3ccccc23)n1 , inhibition value reported: 18.7

Please examine the following record next.
Result for Nc1nc(N)c(-c2cc(Cl)cc(Cl)c2Cl)c(CF)n1 , tested on Sodium channel protein type 8 subunit alpha (Homo sapiens, UniProt Q9UQD0), inhibition: 97.3

###

molecular target: Nav1.5 (sodium channel protein type 5 subunit alpha) (Homo sapiens, UniProt Q14524); assay: Inhibition of human Nav1.5 expressed in HEK293 cells assessed as change in membrane potential using MP-red voltage sensitive dye at 10 uM; type: cell-based; settings: HEK293 cells expressing human Nav1.5
Sequence (Q14524 whole entry): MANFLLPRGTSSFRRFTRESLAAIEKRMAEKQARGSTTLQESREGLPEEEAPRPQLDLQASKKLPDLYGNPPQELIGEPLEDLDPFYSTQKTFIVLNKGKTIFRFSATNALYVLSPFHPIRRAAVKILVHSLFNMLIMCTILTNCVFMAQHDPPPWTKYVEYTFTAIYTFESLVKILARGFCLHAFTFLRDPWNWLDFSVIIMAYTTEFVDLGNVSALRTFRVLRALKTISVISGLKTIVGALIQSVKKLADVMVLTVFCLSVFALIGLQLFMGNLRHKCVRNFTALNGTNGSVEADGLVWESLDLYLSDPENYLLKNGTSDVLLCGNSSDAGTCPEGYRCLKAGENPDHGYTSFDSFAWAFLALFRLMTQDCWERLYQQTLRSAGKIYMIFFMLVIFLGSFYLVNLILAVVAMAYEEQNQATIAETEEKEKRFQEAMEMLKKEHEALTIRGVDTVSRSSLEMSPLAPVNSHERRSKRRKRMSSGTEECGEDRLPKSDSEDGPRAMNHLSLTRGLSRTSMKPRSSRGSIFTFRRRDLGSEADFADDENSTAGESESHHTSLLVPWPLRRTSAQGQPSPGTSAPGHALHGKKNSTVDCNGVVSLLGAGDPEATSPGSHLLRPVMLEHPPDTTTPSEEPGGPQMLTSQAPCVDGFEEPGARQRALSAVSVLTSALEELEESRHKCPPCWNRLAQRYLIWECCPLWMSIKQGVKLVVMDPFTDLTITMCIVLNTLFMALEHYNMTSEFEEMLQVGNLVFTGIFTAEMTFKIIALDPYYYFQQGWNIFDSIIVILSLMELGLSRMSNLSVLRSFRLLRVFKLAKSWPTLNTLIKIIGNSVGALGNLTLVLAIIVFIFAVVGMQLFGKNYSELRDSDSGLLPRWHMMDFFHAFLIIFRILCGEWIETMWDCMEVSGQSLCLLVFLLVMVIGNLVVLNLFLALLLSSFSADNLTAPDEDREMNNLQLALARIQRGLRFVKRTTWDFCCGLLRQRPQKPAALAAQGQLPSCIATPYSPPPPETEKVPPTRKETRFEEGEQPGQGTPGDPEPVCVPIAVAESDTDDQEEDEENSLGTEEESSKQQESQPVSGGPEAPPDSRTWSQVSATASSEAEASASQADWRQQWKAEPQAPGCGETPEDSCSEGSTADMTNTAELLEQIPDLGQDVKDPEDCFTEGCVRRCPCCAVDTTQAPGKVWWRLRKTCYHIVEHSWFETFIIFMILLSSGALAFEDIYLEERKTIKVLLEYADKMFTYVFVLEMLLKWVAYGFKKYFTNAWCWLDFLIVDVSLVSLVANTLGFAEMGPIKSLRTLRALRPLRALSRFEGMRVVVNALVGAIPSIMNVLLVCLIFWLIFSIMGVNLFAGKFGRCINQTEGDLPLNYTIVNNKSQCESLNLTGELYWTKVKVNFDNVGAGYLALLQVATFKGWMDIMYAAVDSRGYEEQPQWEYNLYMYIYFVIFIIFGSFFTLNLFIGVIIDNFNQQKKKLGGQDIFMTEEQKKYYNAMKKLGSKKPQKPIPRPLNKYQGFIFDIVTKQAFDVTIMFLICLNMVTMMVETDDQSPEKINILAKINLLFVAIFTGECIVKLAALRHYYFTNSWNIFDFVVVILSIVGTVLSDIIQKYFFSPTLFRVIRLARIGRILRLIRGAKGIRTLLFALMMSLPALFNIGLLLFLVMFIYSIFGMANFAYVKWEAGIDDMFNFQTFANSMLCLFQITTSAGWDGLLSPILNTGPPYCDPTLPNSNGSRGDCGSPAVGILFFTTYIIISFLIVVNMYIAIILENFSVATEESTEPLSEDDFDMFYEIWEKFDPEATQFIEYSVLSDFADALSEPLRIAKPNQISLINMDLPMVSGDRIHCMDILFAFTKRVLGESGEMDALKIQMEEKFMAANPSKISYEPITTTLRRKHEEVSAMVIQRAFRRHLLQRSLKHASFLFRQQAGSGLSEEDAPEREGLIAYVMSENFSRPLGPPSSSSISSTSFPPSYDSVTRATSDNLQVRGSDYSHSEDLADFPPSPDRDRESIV
readout: inhibition at 10 µM (%)
Provide only the numeric value, understood in %.

Reference set (4 entries):
Measured inhibition at 10 µM of CN1CCN(c2ncc(-c3cc(Cl)cc(Cl)c3Cl)c(N)n2)CC1 : 97

// inhibition at 10 µM value for NCc1noc(-c2c3ccccc3nn2Cc2ccccc2)n1 : 81

// NCc1noc(-c2nn(Cc3ccccc3)c3ccccc23)n1 : inhibition at 10 µM value = 48

Record Nc1nc(N)c(-c2cc(Cl)cc(Cl)c2Cl)c(CF)n1 , field inhibition at 10 µM: 39

API: the following record is the query input.
inhibition at 10 µM for Nc1nnc(-c2cccc(Cl)c2Cl)c(N)n1 is 40

###

target: Sodium channel protein type 8 subunit alpha (Homo sapiens, UniProt Q9UQD0); assay: Inhibition of human Nav1.6 expressed in HEK293 cells assessed as change in membrane potential at 10 uM by patch clamp technique; type: cell-based
readout: inhibition (%)
Report as a plain number; the unit % is understood.

Notebook: CN1CCN(c2ncc(-c3cc(Cl)cc(Cl)c3Cl)c(N)n2)CC1 , inhibition read as 10.4

For reference, reported inhibition for Nc1nc(N)c(-c2cc(Cl)cc(Cl)c2Cl)c(CF)n1 stands at 2.3

compound NCc1noc(-c2nn(Cc3ccccc3)c3ccccc23)n1 , inhibition observed: 9.5

Next:
Measured inhibition of NCc1noc(-c2c3ccccc3nn2Cc2ccccc2)n1 : 10.2

###

target: Sodium channel protein type 2 subunit alpha (Homo sapiens) (UniProt Q99250); assay: Inhibition of human Nav1.2 expressed in HEK293 cells assessed as change in membrane potential at 50 uM by patch clamp technique; type: cell-based
readout: inhibition (%)
Express it in %; write the number only.

Worked set:
# inhibition of CN1CCN(c2ncc(-c3cc(Cl)cc(Cl)c3Cl)c(N)n2)CC1 = 75.2

What the record says about NCc1noc(-c2c3ccccc3nn2Cc2ccccc2)n1 : inhibition is 33.8

For reference, reported inhibition for Nc1nc(N)c(-c2cc(Cl)cc(Cl)c2Cl)c(CF)n1 stands at 75.2

// next item, inhibition requested
Reported inhibition for NCc1noc(-c2nn(Cc3ccccc3)c3ccccc23)n1 was 10.8

###

assay: Displacement of [3H]BW202W92 from voltage-gated sodium channel in Wistar rat forebrain synaptosomes by liquid scintillation counting; format: subcellular, Brain
readout: pIC50
Value format note: pIC50 is -log10 of concentration (mol/L); just state the number.

Consider the worked cases shown below.
Lookup result for Nc1nc(N)c(-c2cc(Cl)cc(Cl)c2Cl)c(CF)n1 ; measured pIC50: 7.40

Entry NCc1noc(-c2nn(Cc3ccccc3)c3ccccc23)n1 ; pIC50 = 5.48

Kindly note the recorded pIC50 for Nc1nnc(-c2cccc(Cl)c2Cl)c(N)n1 , which is 5.59

Record NCc1noc(-c2c3ccccc3nn2Cc2cccc(Cl)c2)n1 . Reported pIC50: 3.96

---
Notebook: NCc1noc(-c2c3ccccc3nn2Cc2ccccc2)n1 , pIC50 read as 5.17

###

Recorded inhibition for the following compounds
molecular target: Sodium channel protein type 2 subunit alpha (Homo sapiens) (UniProt Q99250); assay: Use-dependent inhibition of human Nav1.2 expressed in HEK293 cells at 10 uM using double-pulse protocol by patch clamp technique; format: cell-based
Give the value in % but do not write % after it.

The cases that follow already have their inhibition on record.
inhibition of NCc1noc(-c2c3ccccc3nn2Cc2ccccc2)n1 , assay on Sodium channel protein type 2 subunit alpha (Homo sapiens) (UniProt Q99250), is 35.8

Given the compound NCc1noc(-c2nn(Cc3ccccc3)c3ccccc23)n1 and test system Sodium channel protein type 2 subunit alpha (Homo sapiens) (UniProt Q99250), the measured inhibition is 1.9

Observed inhibition on Sodium channel protein type 2 subunit alpha (Homo sapiens) (UniProt Q99250), entry CN1CCN(c2ncc(-c3cc(Cl)cc(Cl)c3Cl)c(N)n2)CC1 , equals 40.1

Next:
The compound Nc1nc(N)c(-c2cc(Cl)cc(Cl)c2Cl)c(CF)n1 on Sodium channel protein type 2 subunit alpha (Homo sapiens) (UniProt Q99250): inhibition was 43.4

###

biological target: Sodium channel protein type 8 subunit alpha (Homo sapiens); test: Inhibition of human Nav1.6 expressed in HEK293 cells assessed as change in membrane potential using MP-red voltage sensitive dye
Sequence (Q9UQD0 whole entry): as the sequence (Q9UQD0 whole entry, looked up) above
readout: pIC50
When answering, recall that pIC50 equals minus log10 of the concentration in mol/L, and write that number alone.

What the record says about NCc1noc(-c2c3ccccc3nn2Cc2ccccc2)n1 : pIC50 is 5.99

Turning now to a further record.
Reported pIC50 ( NCc1noc(-c2nn(Cc3ccccc3)c3ccccc23)n1 ) = 6.18

###

target: Sodium channel protein type 4 subunit alpha (Homo sapiens); assay: Inhibition of human Nav1.4 expressed in HEK293 cells assessed as change in membrane potential using MP-red voltage sensitive dye at 10 uM; type: cell-based
Entries and their measured inhibition follow.
Write down the numeric answer in % and omit the unit.

Some entries whose results are on file:
compound CN1CCN(c2ncc(-c3cc(Cl)cc(Cl)c3Cl)c(N)n2)CC1 , inhibition observed: 97

Entry NCc1noc(-c2nn(Cc3ccccc3)c3ccccc23)n1 ; inhibition = 97

NCc1noc(-c2c3ccccc3nn2Cc2ccccc2)n1 yielded inhibition of 98

Query Nc1nc(N)c(-c2cc(Cl)cc(Cl)c2Cl)c(CF)n1 yields inhibition of 98

Here is the next item to consider.
The compound identified as Nc1nnc(-c2cccc(Cl)c2Cl)c(N)n1 registered its inhibition at 21

###

target: Cytochrome P450 2D6 (Homo sapiens, UniProt P10635); assay: Inhibition of human recombinant CYP2D6
Sequence (P10635 whole entry): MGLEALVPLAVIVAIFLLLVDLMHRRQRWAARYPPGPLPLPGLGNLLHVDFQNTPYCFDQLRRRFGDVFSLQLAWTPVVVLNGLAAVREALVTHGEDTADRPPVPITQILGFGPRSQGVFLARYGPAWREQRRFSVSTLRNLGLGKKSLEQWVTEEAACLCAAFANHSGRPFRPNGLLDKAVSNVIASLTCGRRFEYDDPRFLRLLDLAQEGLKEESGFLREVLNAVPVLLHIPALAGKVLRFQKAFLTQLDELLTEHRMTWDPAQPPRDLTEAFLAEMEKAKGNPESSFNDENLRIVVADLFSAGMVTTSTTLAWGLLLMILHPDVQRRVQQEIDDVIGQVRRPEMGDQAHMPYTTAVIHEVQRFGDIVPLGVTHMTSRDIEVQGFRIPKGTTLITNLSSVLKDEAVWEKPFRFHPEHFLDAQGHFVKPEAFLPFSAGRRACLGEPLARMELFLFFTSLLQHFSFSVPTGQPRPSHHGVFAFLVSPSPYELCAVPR
// log10 IC50 lookup, one value per entry
Parameter value (number): base-10 log of IC50 in µM.

Take a look at these entries with their results.
Just so you know, measured log10 IC50 for NCc1noc(-c2n[nH]c3ccccc23)n1 came out at 0.00

Lab note: COc1ccc(S(=O)(=O)n2nc(-c3nc(CNC(=O)OC(C)(C)C)no3)c3ccccc32)cc1OC gave log10 IC50 of 1.30

log10 IC50 measured on COc1ccc(S(=O)(=O)n2nc(-c3nc(CN)no3)c3ccccc32)cc1OC = 0.46

Recorded result, Cc1cccc(Cn2nc(-c3nc(CN)no3)c3ccccc32)c1 , log10 IC50: 0.60

log10 IC50 reported for this compound NCc1noc(-c2nn(CCc3ccccc3)c3ccccc23)n1 : 0.12

Next:
Record CC(C)(C)OC(=O)NCc1noc(-c2nn(Cc3ccc4c(c3)OCO4)c3ccccc23)n1 , field log10 IC50: 0.52

What the record says about Cc1cc(C)cc(Cn2nc(-c3nc(CN)no3)c3ccccc32)c1 : log10 IC50 is 0.57

###

target: Cytochrome P450 2D6 (Homo sapiens, UniProt P10635); test: Inhibition of human recombinant CYP2D6
# reported pIC50; entries follow
The read-out pIC50 is expressed as -log10 of concentration in moles per litre.

The cases that follow already have their pIC50 on record.
Param item: Cc1cccc(Cn2nc(-c3nc(CNC(=O)OC(C)(C)C)no3)c3ccccc32)c1 ; param system: Cytochrome P450 2D6 (Homo sapiens, UniProt P10635); output pIC50: 4.70

The compound NCc1noc(-c2nn(Cc3ccc(C(N)=O)cc3)c3ccccc23)n1 , when measured on Cytochrome P450 2D6 (Homo sapiens, UniProt P10635), yielded pIC50 of 5.89

Tested on Cytochrome P450 2D6 (Homo sapiens, UniProt P10635), the item NCc1noc(-c2nn(Cc3ccccc3)c3ccccc23)n1 showed pIC50 equal to 7.05

Others:
Value sought: pIC50, system Cytochrome P450 2D6 (Homo sapiens, UniProt P10635), item NCc1noc(-c2c3ccccc3nn2CCc2ccccc2)n1 . Result: 5.37

Bench note, Cytochrome P450 2D6 (Homo sapiens, UniProt P10635): CC(=O)Nc1ccc(Cn2nc(-c3nc(CNC(=O)OC(C)(C)C)no3)c3ccccc32)cc1 , pIC50 reads 4.89

All values here come from ChEMBL document CHEMBL1138611.
